Reference source: paper PMC12655172

tested on: α-D-glucosidase (human lysosome); experiment: Glycosidase inhibition (Table 2 panel); format: biochemical; conditions: at 100 μM
endpoint label: inhibition % α-D-Glucosidase Human Lysosome

Q) Provide one value: measured inhibition % α-D-Glucosidase Human Lysosome of CC1(C)O[C@H]2O[C@H]3[C@@H]([C@H]2O1)N(Cc1cccc(O)c1)C[C@H]3O
A) ^cNI ^d(3.3%)

Q) Identify measured inhibition % α-D-Glucosidase Human Lysosome corresponding to CC1(C)O[C@H]2O[C@H]3[C@@H]([C@H]2O1)N(Cc1ccccc1B1OC(C)(C)C(C)(C)O1)C[C@H]3O
A) ^cNI ^d(3.3%)

Q) Fill in reported inhibition % α-D-Glucosidase Human Lysosome for this entry: CC1(C)O[C@H]2O[C@H]3[C@@H]([C@H]2O1)N(Cc1cccc(B(O)O)c1)C[C@H]3O
A) ^cNI ^d(0.3%)

Q) // fetch inhibition % α-D-Glucosidase Human Lysosome given entry OB(O)c1ccccc1CN1C[C@@H](O)[C@H]2OC(O)[C@H](O)[C@H]21 (stereo partly drawn)
A) ^cNI ^d(0.3%)

====

test system: MIA-Pa-Ca2 (pancreatic carcinoma); assay: Cancer screening, MTT growth inhibition; format: cell-based; conditions: Homo sapiens, MIA PaCa-2, 25 µM of drug, 72 h, read-out: DOSE SCREEN percentage (%) cell growth inhibition MIA-Pa-Ca2 Pancreatic
endpoint label: inhibition at 25 µM (%)
The response must be a number in % with no trailing unit.

Worked examples, 3 molecules total:
Q) Look up inhibition at 25 µM of CC1(C)O[C@H]2O[C@H]3[C@@H]([C@H]2O1)N(Cc1ccccc1B(O)O)C[C@H]3O [ortho 5] and report it.
A) 12

Q) Annotate the molecule CC1(C)O[C@H]2O[C@H]3[C@@H]([C@H]2O1)N(Cc1cccc(O)c1)C[C@H]3O [meta 6] with its measured inhibition at 25 µM.
A) 12

Q) State its inhibition at 25 µM: OC[C@H](O)[C@@H]1[C@H](O)[C@H](O)CN1Cc1cccc(B(O)O)c1 [meta 4]
A) 16

Kindly consider the entry below.
Q) For the molecule CC1(C)O[C@H]2O[C@H]3[C@@H]([C@H]2O1)N(Cc1cccc(B2OC(C)(C)C(C)(C)O2)c1)C[C@H]3O [meta 2] , give its measured inhibition at 25 µM value.
A) 19

====

molecular target: α-D-glucosidase (rice) (Oryza sativa subsp. japonica, UniProt Q653V7); assay: Glycosidase inhibition (Table 2 panel); format: biochemical; conditions: at 100 μM
Sequence (Q653V7 34-885): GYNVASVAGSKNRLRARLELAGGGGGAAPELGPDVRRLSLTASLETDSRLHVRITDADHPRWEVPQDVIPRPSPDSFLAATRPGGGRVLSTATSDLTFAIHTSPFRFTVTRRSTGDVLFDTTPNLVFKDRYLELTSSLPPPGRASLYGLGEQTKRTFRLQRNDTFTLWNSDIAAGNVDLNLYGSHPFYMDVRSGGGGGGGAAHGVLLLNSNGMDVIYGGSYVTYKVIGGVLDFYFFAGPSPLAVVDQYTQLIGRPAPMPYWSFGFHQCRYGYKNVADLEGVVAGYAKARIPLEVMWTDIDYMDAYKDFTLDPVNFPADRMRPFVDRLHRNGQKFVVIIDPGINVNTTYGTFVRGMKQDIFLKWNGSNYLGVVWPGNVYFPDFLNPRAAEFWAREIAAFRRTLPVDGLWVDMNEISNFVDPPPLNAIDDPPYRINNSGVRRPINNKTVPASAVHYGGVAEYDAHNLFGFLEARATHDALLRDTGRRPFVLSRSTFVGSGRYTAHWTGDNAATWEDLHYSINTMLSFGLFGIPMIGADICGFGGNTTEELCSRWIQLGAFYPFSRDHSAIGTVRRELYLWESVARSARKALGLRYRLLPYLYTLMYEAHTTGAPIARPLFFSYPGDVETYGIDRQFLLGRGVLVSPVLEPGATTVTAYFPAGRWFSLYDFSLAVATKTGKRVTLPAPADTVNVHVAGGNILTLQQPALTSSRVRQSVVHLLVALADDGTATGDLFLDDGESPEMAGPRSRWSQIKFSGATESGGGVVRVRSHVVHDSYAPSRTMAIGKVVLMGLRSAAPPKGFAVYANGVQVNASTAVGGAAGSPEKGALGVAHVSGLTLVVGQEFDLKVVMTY
endpoint label: inhibition at 100 µM (%)
Answer format: numeric, % implied, no suffix.

Q) Give inhibition at 100 µM for CC1(C)O[C@H]2O[C@H]3[C@@H]([C@H]2O1)N(Cc1cccc(B(O)O)c1)C[C@H]3O
A) 0

Next:
Q) Supply recorded inhibition at 100 µM for OB(O)c1ccccc1CN1C[C@@H](O)[C@H]2OC(O)[C@H](O)[C@H]21 (stereo partly drawn) here.
A) 0

Q) Give inhibition at 100 µM for the following compound: OC[C@H](O)[C@@H]1[C@H](O)[C@H](O)CN1Cc1ccccc1B(O)O
A) 0

Q) For CC1(C)O[C@H]2O[C@H]3[C@@H]([C@H]2O1)N(Cc1ccccc1B(O)O)C[C@H]3O , write its inhibition at 100 µM.
A) 6.7

====

test system: trehalase (porcine kidney); construct: purchased Sigma-Aldrich; host or cells: porcine kidney; assay: Glycosidase inhibition (Table 2 panel); format: biochemical; details: at 1000 μM
endpoint label: inhibition % Trehalase Porcine Kidney

Q) Return reported inhibition % Trehalase Porcine Kidney for target or system trehalase (porcine kidney), item OB(O)c1cccc(CN2C[C@@H](O)[C@H]3OC(O)[C@H](O)[C@H]32)c1 (stereo partly drawn) .
A) ^aNI ^b(0%)

Q) Quote trehalase (porcine kidney) inhibition % Trehalase Porcine Kidney for entry OB(O)c1ccccc1CN1C[C@@H](O)[C@H]2OC(O)[C@H](O)[C@H]21 (stereo partly drawn) .
A) ^aNI ^b(0%)

Q) Report inhibition % Trehalase Porcine Kidney under test system trehalase (porcine kidney) for OC[C@H](O)[C@@H]1[C@H](O)[C@H](O)CN1Cc1ccccc1B(O)O .
A) ^aNI ^b(0%)

====

system: MIA-Pa-Ca2 (pancreatic carcinoma); assay: Cancer screening, MTT growth inhibition; assay type: cell-based; details: Homo sapiens, MIA PaCa-2, 25 µM of drug, 72 h, read-out: DOSE SCREEN percentage (%) cell growth inhibition MIA-Pa-Ca2 Pancreatic
endpoint label: inhibition at 25 µM (%)
Please reply with the bare figure in % and do not write the unit itself.

Consider the reported inhibition at 25 µM for these molecules:
Q) Indicate its recorded inhibition at 25 µM; the molecule in question is N[C@@H](Cc1ccc(B(O)O)cc1)C(=O)O [BPA, 4-borono-L-phenylalanine, reference compound]
A) 3

Q) Kindly indicate its recorded inhibition at 25 µM. Item: CC1(C)O[C@H]2O[C@H]3[C@@H]([C@H]2O1)N(Cc1cccc(B(O)O)c1)C[C@H]3O
A) 16

Q) Item OB(O)c1ccccc1CN1C[C@@H](O)[C@H]2OC(O)[C@H](O)[C@H]21 (stereo partly drawn) : provide inhibition at 25 µM
A) 5

Q) Give inhibition at 25 µM for the following molecule: OC[C@H](O)[C@@H]1[C@H](O)[C@H](O)CN1Cc1ccccc1B(O)O
A) 7

Q) Tell me inhibition at 25 µM reported for OB(O)c1cccc(CN2C[C@@H](O)[C@H]3OC(O)[C@H](O)[C@H]32)c1 (stereo partly drawn)
A) 17

// moving on: another record for inhibition at 25 µM
Q) Specify inhibition at 25 µM for CC1(C)O[C@H]2O[C@H]3[C@@H]([C@H]2O1)N(Cc1ccccc1B1OC(C)(C)C(C)(C)O1)C[C@H]3O and stop.
A) 9

====

Target: β-D-glucosidase (bovine liver) (Bos taurus, UniProt F1MNT6)
Sequence (F1MNT6 1-469): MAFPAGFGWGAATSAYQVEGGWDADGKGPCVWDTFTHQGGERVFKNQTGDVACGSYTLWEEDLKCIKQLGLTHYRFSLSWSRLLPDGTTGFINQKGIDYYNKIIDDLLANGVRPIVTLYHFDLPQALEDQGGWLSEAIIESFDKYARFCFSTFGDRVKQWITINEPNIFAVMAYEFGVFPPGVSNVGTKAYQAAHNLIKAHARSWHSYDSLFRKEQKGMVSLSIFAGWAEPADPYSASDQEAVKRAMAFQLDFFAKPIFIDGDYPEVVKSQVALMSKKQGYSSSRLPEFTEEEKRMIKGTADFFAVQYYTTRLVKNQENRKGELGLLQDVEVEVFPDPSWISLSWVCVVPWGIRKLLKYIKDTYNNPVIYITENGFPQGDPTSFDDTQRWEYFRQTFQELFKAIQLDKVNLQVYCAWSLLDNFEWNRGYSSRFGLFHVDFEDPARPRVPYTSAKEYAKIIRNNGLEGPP
Experiment: Glycosidase inhibition (Table 2 panel)
Assay type: biochemical
Conditions: at 1000 μM
Text: The enzymes α-D-glucosidase (yeast), β-D-glucosidases (almond, bovine liver), α-D-galactosidase (coffee beans), β-D-galactosidase (bovine liver), α-D-mannosidase (Jack bean), β-D-mannosidase (snail), α-L-rhamnosidase (P. decumbens), α-L-fucosidase (bovine kidney), trehalase (porcine kidney), β-D-glucuronidases (E. coli, bovine liver), amyloglucosidase (A. niger), para-nitrophenyl glycosides, and various disaccharides were purchased from Sigma-Aldrich Co (St. Louis, MO, USA). […]
Reported inhibition at 1000 µM values follow for various molecules
Provide the measurement as a number trailed by its unit.

Field: example entries. Status: answers known.
Q) Enter recorded inhibition at 1000 µM with β-D-glucosidase (bovine liver) (Bos taurus, UniProt F1MNT6) for OC[C@H](O)[C@@H]1[C@H](O)[C@H](O)CN1Cc1ccccc1B(O)O [ortho 4] here.
A) 25.7%

Q) Enter inhibition at 1000 µM (test system β-D-glucosidase (bovine liver) (Bos taurus, UniProt F1MNT6)) for CC1(C)O[C@H]2O[C@H]3[C@@H]([C@H]2O1)N(Cc1cccc(B2OC(C)(C)C(C)(C)O2)c1)C[C@H]3O [meta 2]
A) 32.7%

Q) Please report inhibition at 1000 µM with β-D-glucosidase (bovine liver) (Bos taurus, UniProt F1MNT6) for item CC1(C)O[C@H]2O[C@H]3[C@@H]([C@H]2O1)N(Cc1ccccc1B1OC(C)(C)C(C)(C)O1)C[C@H]3O [ortho 2] .
A) 19.7%

Next:
Q) Give inhibition at 1000 µM; test system β-D-glucosidase (bovine liver) (Bos taurus, UniProt F1MNT6); molecule OC[C@H](O)[C@@H]1[C@H](O)[C@H](O)CN1Cc1cccc(B(O)O)c1 [meta 4]
A) 37.9%

====

Tested on: β-D-glucuronidase (bovine liver)
Experiment: Glycosidase inhibition (Table 2 panel)
Type: biochemical
Settings: at 100 μM
Excerpt: The enzymes α-D-glucosidase (yeast), β-D-glucosidases (almond, bovine liver), α-D-galactosidase (coffee beans), β-D-galactosidase (bovine liver), α-D-mannosidase (Jack bean), β-D-mannosidase (snail), α-L-rhamnosidase (P. decumbens), α-L-fucosidase (bovine kidney), trehalase (porcine kidney), β-D-glucuronidases (E. coli, bovine liver), amyloglucosidase (A. niger), para-nitrophenyl glycosides, and various disaccharides were purchased from Sigma-Aldrich Co (St. Louis, MO, USA). […]
endpoint label: inhibition % β-D-Glucuronidase Bovine Liver

Q) Return the recorded inhibition % β-D-Glucuronidase Bovine Liver value; entry: CC1(C)O[C@H]2O[C@H]3[C@@H]([C@H]2O1)N(Cc1ccccc1B(O)O)C[C@H]3O
A) ^cNI ^d(0%)

Q) Using known records, supply inhibition % β-D-Glucuronidase Bovine Liver for OC[C@H](O)[C@@H]1[C@H](O)[C@H](O)CN1Cc1ccccc1B(O)O
A) ^cNI ^d(0%)

====

Tested on: α-D-glucosidase (rat intestine)
Assay: Glycosidase inhibition (Table 3 panel)
Format: biochemical
Details: 1 mg/mL aqueous solution; run in water
Experimental: All enzymes and para-nitrophenyl substrates were purchased from Sigma. Enzymes were assayed at 27 °C in citric acid (0.1 M)/disodium hydrogen phosphate (0.2 M) buffers at the optimum pH for the enzyme. […] The reactions were stopped by addition of […] 0.4 M glycine (pH 10.4) during the exponential phase of the reaction, which had been determined at the beginning using uninhibited assays in which water replaced the inhibitor. […]
# reported Percentage inhibition α-D-Glucosidase Rat Intestine; entries follow
Lab book: enter the figure in %, no units written.

Q) // fetch Percentage inhibition α-D-Glucosidase Rat Intestine given entry CC1(C)O[C@H]2O[C@H]3[C@@H]([C@H]2O1)N(Cc1cccc(B2OC(C)(C)C(C)(C)O2)c1)C[C@H]3O
A) 16.8

Q) Please supply the value of reported Percentage inhibition α-D-Glucosidase Rat Intestine for the item OC[C@H](O)[C@@H]1[C@H](O)[C@H](O)CN1Cc1ccccc1B(O)O
A) 17.4

Q) Using the record for OB(O)c1ccccc1CN1C[C@@H](O)[C@H]2OC(O)[C@H](O)[C@H]21 (stereo partly shown) , state its measured Percentage inhibition α-D-Glucosidase Rat Intestine.
A) −1.4

Q) Using the record for CC1(C)O[C@H]2O[C@H]3[C@@H]([C@H]2O1)N(Cc1ccccc1B1OC(C)(C)C(C)(C)O1)C[C@H]3O , state its measured Percentage inhibition α-D-Glucosidase Rat Intestine.
A) −6.7
